These entries and their values trace back to paper PMC10786891.

Biological target: T1, EsCas13d, nuclease-dead (Eubacterium siraeum, UniProt B0MS50, R295A;H300A;R849A;H854A)
T1 sequence: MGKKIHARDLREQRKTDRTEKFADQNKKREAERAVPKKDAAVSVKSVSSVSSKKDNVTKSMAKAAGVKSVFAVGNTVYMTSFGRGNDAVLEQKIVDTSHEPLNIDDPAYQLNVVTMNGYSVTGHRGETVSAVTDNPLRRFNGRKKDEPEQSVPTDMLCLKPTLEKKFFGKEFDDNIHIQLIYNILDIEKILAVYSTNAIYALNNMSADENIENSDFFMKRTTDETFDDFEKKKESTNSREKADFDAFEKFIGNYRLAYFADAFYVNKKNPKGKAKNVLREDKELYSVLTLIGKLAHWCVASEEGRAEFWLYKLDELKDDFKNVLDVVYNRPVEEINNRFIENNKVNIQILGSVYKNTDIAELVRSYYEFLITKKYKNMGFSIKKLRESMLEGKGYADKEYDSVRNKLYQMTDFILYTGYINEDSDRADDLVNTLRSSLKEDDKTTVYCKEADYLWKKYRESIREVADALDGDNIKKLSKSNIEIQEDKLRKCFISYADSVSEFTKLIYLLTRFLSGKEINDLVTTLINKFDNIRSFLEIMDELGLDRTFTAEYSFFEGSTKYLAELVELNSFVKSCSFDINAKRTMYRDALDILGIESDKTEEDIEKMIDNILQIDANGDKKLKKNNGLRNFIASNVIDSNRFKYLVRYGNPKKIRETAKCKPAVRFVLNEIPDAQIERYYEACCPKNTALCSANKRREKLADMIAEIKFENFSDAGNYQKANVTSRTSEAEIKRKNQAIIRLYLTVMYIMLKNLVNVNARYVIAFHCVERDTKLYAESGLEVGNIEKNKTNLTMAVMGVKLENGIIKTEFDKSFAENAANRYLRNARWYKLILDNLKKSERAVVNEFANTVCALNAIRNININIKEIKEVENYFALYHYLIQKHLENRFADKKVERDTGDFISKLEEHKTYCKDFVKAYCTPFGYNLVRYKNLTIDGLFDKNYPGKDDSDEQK
Experiment: crRNA (strand 1, pre-loaded); Mg2+; 40 mM Tris-HCl pH 7.5, 150 mM NaCl, 6 mM MgCl2, 1 mM DTT, 0.1% Tween-20, 0.2 mg/ml BSA; 25 C; 10 min per concentration, then washed
Details: tags: His6-TwinStrep-SUMO cleaved; N-terminal SNAP kept (SNAP-Surface 488); label: 3' end held by stalled T7 RNA polymerase
metric-name: pKd
One number for each entry, as −log10 of the molar value.

Example binders with recorded pKd:
binder="target 2 MT 5'PFS UAU 3'PFS CAG (mixed) RNA 1: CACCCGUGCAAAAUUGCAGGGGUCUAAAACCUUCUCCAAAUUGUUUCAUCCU RNA 2: GGGAAUGGAUCCACAUCUACGAAUUCUAUAGGAUGAAACAAUUUGGAGAAGCAGAGAUCGGAAGAGCACACGU" experimental_result=7.47
binder="target 1 MT 5'PFS GCU 3'PFS ACG (mixed) RNA 1: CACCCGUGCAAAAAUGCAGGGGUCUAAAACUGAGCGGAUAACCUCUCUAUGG RNA 2: GGGAAUGGAUCCACAUCUACGAAUUCGCUCCAUAGAGAGGUUAUCCGCUCAACGAGAUCGGAAGAGCACACGU" experimental_result=7.36

List reported pKd for each of these binders:
1. target 3 G4A,A5C (mixed) RNA 1: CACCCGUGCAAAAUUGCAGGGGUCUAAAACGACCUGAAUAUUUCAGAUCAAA RNA 2: GGGAAUGGAUCCACAUCUACGAAUUCGUUUUUGAUCUGAAAUAUUCCAGUCUGCAGAUCGGAAGAGCACACGU
2. target 1 A14G,G15A (mixed) RNA 1: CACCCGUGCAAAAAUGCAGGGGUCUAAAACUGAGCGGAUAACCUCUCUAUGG RNA 2: GGGAAUGGAUCCACAUCUACGAAUUCGUACCAUAGAAGGGUUAUCCGCUCACCGAGAUCGGAAGAGCACACGU
3. target 1 MT 5'PFS ACA 3'PFS UCU (mixed) RNA 1: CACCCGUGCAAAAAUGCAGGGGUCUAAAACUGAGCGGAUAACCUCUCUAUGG RNA 2: GGGAAUGGAUCCACAUCUACGAAUUCACACCAUAGAGAGGUUAUCCGCUCAUCUAGAUCGGAAGAGCACACGU
4. target 1 U8C,G17A (mixed) RNA 1: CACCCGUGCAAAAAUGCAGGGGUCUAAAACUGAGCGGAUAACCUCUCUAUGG RNA 2: GGGAAUGGAUCCACAUCUACGAAUUCGUACCAUAAAGAGGUUACCCGCUCACCGAGAUCGGAAGAGCACACGU
5. target 1 insU 3' of 22,insU 3' of 1 (mixed) RNA 1: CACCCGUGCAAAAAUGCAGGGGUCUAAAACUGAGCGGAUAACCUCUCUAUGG RNA 2: GGGAAUGGAUCCACAUCUACGAAUUCGUACUCAUAGAGAGGUUAUCCGCUCAUCCGAGAUCGGAAGAGCACACGU

Return:
[7.00, 7.83, 8.13, 7.21, 7.43]

Recorded result, target 3 insU 3' of 22,insA 3' of 19 (mixed) RNA 1: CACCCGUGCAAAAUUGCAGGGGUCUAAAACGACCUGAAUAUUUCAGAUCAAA RNA 2: GGGAAUGGAUCCACAUCUACGAAUUCGUUUUUUGAAUCUGAAAUAUUCAGGUCUGCAGAUCGGAAGAGCACACGU , pKd: 7.11
